Exercise: state measured protein stability index for each of the variants provided.
B1: SNAP91 (parent)
chain: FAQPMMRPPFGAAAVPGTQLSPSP

Variants of: B1
procedure-details: protein stability index of a GFP-peptide fusion (GPS, HEK-293T) (PSI 1-6); higher = more stable;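 further: lentivirally expressed fusions sorted by FACS into six bins by GFP to DsRed ratio, PSI derived from sequencing read proportions per bin multiplied by bin number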
test-parameters: c terminus: a fixed tail appended
One number for each entry.

Recorded protein stability index, per entry:
>>> print(df.to_string())
   variant_code  measured_result
0          P22D             2.97
1          Q19G             2.96
2          A14P             3.08
3          F10C             2.95
4          S23G             3.05
5          Q19R                3
6           P8V             3.11
7          S23M             2.36
8           P8W             2.64
9          P22T              3.3

Give me protein stability index for each of these variants, listed below.
1. S23I
2. A12L

Reply:
2.73
2.42

Can you give me protein stability index for all of these, one by one?
1. F10P
2. F1N
3. A2L
4. P16W
5. A13T
6. M5W
7. P4I

Reply:
[4.31, 4.53, 2.62, 1.78, 3.36, 1.96, 1.96]

// batch mode: one protein stability index value per listed entry
1. F1L
2. Q3C
3. P4E
4. M5Y

Reply:
1: 3.59; 2: 2.58; 3: 2.77; 4: 2.64

Hey, quick one: what's protein stability index for each of these?
1. P9A
2. R7E
3. Q3W
4. A12R
5. F1G
6. F1P

Reply:
1. 3.51
2. 3.22
3. 2.32
4. 3.33
5. 4.5
6. 4.75
